Cited source for all entries: patent US20040014047A1

tested on: LIM domain kinase 1 mRNA; test: Antisense inhibition of LIM domain kinase 1 expression, dose response in A549 cells, real-time quantitative PCR; assay type: cell-based, human; settings: dose 400 nM, averaged from two experiments, normalized to untreated control
Strand notation (5' to 3'): a small letter for the sugar, then the base; units joined by * are phosphorothioate-linked, units joined directly phosphodiester-linked; [ ] holds rarer units or linkages, { } end groups; capitals alone tell only the bases. e = 2'-O-(2-methoxyethyl) (MOE); [5mC] = 5-methylcytosine; d = 2'-deoxy (DNA)
property measured: Percent Inhibition of LIM Domain Kinase 1 mRNA Levels (%)
Give bare numbers, in %.

{"substance": "206214 (antisense e[5mC]*e[5mC]*eG*eG*e[5mC]*d[5mC]*dA*dG*dG*dG*d[5mC]*dA*d[5mC]*d[5mC]*dG*e[5mC]*eA*eG*e[5mC]*eT) [compound 206214]", "target system": "LIM domain kinase 1 mRNA", "recorded value": 98}
{"substance": "114845 (eT*eA*e[5mC]*eG*eT*d[5mC]*d[5mC]*dG*dG*dA*dG*dG*d[5mC]*dG*dT*eA*e[5mC]*eG*e[5mC]*e[5mC]) [compound 114845]", "target system": "LIM domain kinase 1 mRNA", "recorded value": 24}
{"substance": "206212 (antisense eA*e[5mC]*eT*e[5mC]*e[5mC]*d[5mC]*d[5mC]*dA*dT*dT*dT*dG*dG*dT*dT*e[5mC]*e[5mC]*eT*eG*eG) [compound 206212]", "target system": "LIM domain kinase 1 mRNA", "recorded value": 97}
{"substance": "206219 (antisense eT*eG*e[5mC]*eA*e[5mC]*dT*dG*dA*dG*dA*dA*dA*dG*d[5mC]*dT*eT*e[5mC]*eA*e[5mC]*eA) [compound 206219]", "target system": "LIM domain kinase 1 mRNA", "recorded value": 93}

Turning to the following substance.
In plain terms, 129695 (eT*eT*e[5mC]*eT*eA*d[5mC]*d[5mC]*dT*d[5mC]*dG*d[5mC]*dG*d[5mC]*dG*dA*eT*eT*eT*eA*e[5mC]) [compound 129695] has a documented Percent Inhibition of LIM Domain Kinase 1 mRNA Levels of 62
